The origin of these recorded values is the Immune Epitope Database (IEDB).

Target Desc: HLA-A*31:01
Test Details: IEDB peptide-MHC binding, purified MHC/competitive/fluorescence; filed as Kd, often an IC50 or EC50 that approximates it; bounds were set here for any values at or beyond the usual limits of such assays
Conditions Used: source organism: West Nile virus
Measured Endpoint: Kd

Give the measured Kd of `VLALLAFFR` .
1.08 µM

====

Target Desc: HLA-A*26:02
Test Details: IEDB peptide-MHC binding, purified MHC/competitive/fluorescence; filed as Kd, often an IC50 or EC50 that approximates it; bounds were set here for any values at or beyond the usual limits of such assays
Conditions Used: source organism: Hepatovirus A
Measured Endpoint: Kd (µM)
Answers are plain numbers, in µM.

Look at this sequence and give its reported Kd. `YMYAVSGAL`
4.58

====

Target Desc: HLA-B*15:01
Test Details: IEDB peptide-MHC binding, purified MHC/direct/fluorescence; filed as Kd, often an IC50 or EC50 that approximates it; bounds were set here for any values at or beyond the usual limits of such assays
Conditions Used: source organism: Hepatovirus A
Measured Endpoint: Kd (nM)
Answers are plain numbers, in nM.

Suppose we examine the sequence `YMYAVSGAL` ; what Kd value has been reported?
11.6

====

Target Desc: HLA-A*30:02
Test Details: IEDB peptide-MHC binding, purified MHC/competitive/radioactivity; filed as Kd, often an IC50 or EC50 that approximates it; bounds were set here for any values at or beyond the usual limits of such assays
Conditions Used: source organism: Mammarenavirus machupoense
Measured Endpoint: pKd
One number for each entry, as −log10 of the molar value.

Consider the sequence `QCGDPSSFDY` and give its measured pKd.
5.48

====

Target Desc: HLA-A*29:02
Test Details: IEDB peptide-MHC binding, purified MHC/direct/fluorescence; filed as Kd, often an IC50 or EC50 that approximates it; bounds were set here for any values at or beyond the usual limits of such assays
Conditions Used: source organism: Vibrio parahaemolyticus RIMD 2210633
Measured Endpoint: Kd

Bench note: what Kd did `DTWHGFKNM` show?
≥ 20 µM

====

Target Desc: HLA-A*02:01
Test Details: IEDB peptide-MHC binding, purified MHC/competitive/radioactivity; filed as Kd, often an IC50 or EC50 that approximates it; bounds were set here for any values at or beyond the usual limits of such assays
Conditions Used: source organism: Hepatitis C virus (isolate 1)
Measured Endpoint: Kd

What measured Kd goes with `AACRAAGL` ?
≥ 50 µM

====

Target Desc: HLA-A*33:01
Test Details: IEDB peptide-MHC binding, purified MHC/competitive/radioactivity; filed as Kd, often an IC50 or EC50 that approximates it; bounds were set here for any values at or beyond the usual limits of such assays
Conditions Used: source organism: Dengue virus 2 Jamaica/1409/1983
Provide the recorded Kd for the entries that follow.
One number for each entry, in nM.

Take a look at these entries with their results.
seq_text=FTTNIWLKLR target_desc=HLA-A*33:01 measured_endpoint=Kd readout_value=68.3
seq_text=MWTLMYFHR target_desc=HLA-A*33:01 measured_endpoint=Kd readout_value=1.51

Quick check: Kd of `IGQMFETTMR` ?
1630

====

Target Desc: HLA-B*44:02
Test Details: IEDB peptide-MHC binding, purified MHC/competitive/radioactivity; filed as Kd, often an IC50 or EC50 that approximates it; bounds were set here for any values at or beyond the usual limits of such assays
Conditions Used: source organism: Mammarenavirus machupoense
Measured Endpoint: Kd

If you can, please state the reported Kd value of `EEVLDVCPLG` .
≥ 70.2 µM

====

Target Desc: HLA-A*02:03
Test Details: IEDB peptide-MHC binding, purified MHC/competitive/radioactivity; filed as Kd, often an IC50 or EC50 that approximates it; bounds were set here for any values at or beyond the usual limits of such assays
Conditions Used: source organism: Mammarenavirus brazilense
Measured Endpoint: pKd
Answers are plain numbers, as −log10 of the molar value.

Query (sequence): `KCFGNTALA` ; field requested: pKd
5.96

====

Target Desc: HLA-B*07:02
Test Details: IEDB peptide-MHC binding, purified MHC/direct/fluorescence; filed as Kd, often an IC50 or EC50 that approximates it; bounds were set here for any values at or beyond the usual limits of such assays
Conditions Used: source organism: Mycobacterium avium 104
Measured Endpoint: Kd

I am curious: what Kd value has been reported for `EHVQGDIDL` ?
≥ 20 µM

====

Target Desc: HLA-B*58:01
Test Details: IEDB peptide-MHC binding, purified MHC/direct/fluorescence; filed as Kd, often an IC50 or EC50 that approximates it; bounds were set here for any values at or beyond the usual limits of such assays
Conditions Used: source organism: Escherichia coli O157:H7
pKd: −log10 of the molar value.
I'd appreciate it if you could supply pKd values for the items below.

seq_text=ADLRFASEF target_desc=HLA-B*58:01 measured_endpoint=pKd readout_value="≤ 4.70"

// next entry
So what pKd did `ETIGLVRAL` get with HLA-B*58:01?
≤ 4.70

====

Target Desc: HLA-A*24:03
Test Details: IEDB peptide-MHC binding, purified MHC/competitive/fluorescence; filed as Kd, often an IC50 or EC50 that approximates it; bounds were set here for any values at or beyond the usual limits of such assays
Conditions Used: source organism: Pseudomonas aeruginosa PACS2
Measured Endpoint: pKd
One number for each entry, as −log10 of the molar value.

# query: pKd of entry `IYQARFMKY`
9.10

====

Target Desc: HLA-B*08:01
Test Details: IEDB peptide-MHC binding, purified MHC/direct/fluorescence; filed as Kd, often an IC50 or EC50 that approximates it; bounds were set here for any values at or beyond the usual limits of such assays
Conditions Used: source organism: Escherichia coli
pKd: −log10 of the molar value.
Measured Endpoint: pKd

Can you look up the measured pKd of `RRRIGEIFK` for me?
≤ 4.70

====

Target Desc: HLA-B*15:17
Test Details: IEDB peptide-MHC binding, purified MHC/direct/fluorescence; filed as Kd, often an IC50 or EC50 that approximates it; bounds were set here for any values at or beyond the usual limits of such assays
Conditions Used: source organism: Vibrio cholerae
Measured Endpoint: Kd (nM)
Numbers only, in nM.

Any idea what Kd was measured for `QMEQWGCPW` ?
147

====

Provide the reported pKd of each item.
Target Desc: HLA-A*24:02
Test Details: IEDB peptide-MHC binding, purified MHC/competitive/radioactivity; filed as Kd, often an IC50 or EC50 that approximates it; bounds were set here for any values at or beyond the usual limits of such assays
Conditions Used: source organism: Dengue virus 1 Brazil/97-11/1997
Numbers only, as −log10 of the molar value.

Would you be so kind as to report pKd for each listed record?
1. MLMTGTLAVF
2. PYMPSVVETL

6.53
7.50

====

Target Desc: HLA-B*08:01
Test Details: IEDB peptide-MHC binding, purified MHC/direct/fluorescence; filed as Kd, often an IC50 or EC50 that approximates it; bounds were set here for any values at or beyond the usual limits of such assays
Conditions Used: source organism: Mycobacterium tuberculosis str. Haarlem
Measured Endpoint: Kd (nM)
One number for each entry, in nM.

Please tell me: Kd of `TLRRRFAVA` , system HLA-B*08:01?
12

====

Target Desc: HLA-B*40:01
Test Details: IEDB peptide-MHC binding, purified MHC/direct/fluorescence; filed as Kd, often an IC50 or EC50 that approximates it; bounds were set here for any values at or beyond the usual limits of such assays
Conditions Used: source organism: Enterobacteria phage f1
pKd: −log10 of the molar value.
Measured Endpoint: pKd

Need pKd of `TFMYVFSTF` , thanks.
≤ 4.70

====

Target Desc: HLA-A*33:01
Test Details: IEDB peptide-MHC binding, purified MHC/competitive/radioactivity; filed as Kd, often an IC50 or EC50 that approximates it; bounds were set here for any values at or beyond the usual limits of such assays
Conditions Used: source organism: Vaccinia virus WR
pKd: −log10 of the molar value.
We use 6 as the dividing line for pKd: on or above the line is T, below is F.

seq_text=VSVDAMIHK target_desc=HLA-A*33:01 class=F
seq_text=KIMSIGFEAR target_desc=HLA-A*33:01 class=T
seq_text=SITPNNLNK target_desc=HLA-A*33:01 class=F
seq_text=GLILFVLALY target_desc=HLA-A*33:01 class=F
seq_text=LAELLEMKY target_desc=HLA-A*33:01 class=F
seq_text=HAKYMVTDK target_desc=HLA-A*33:01 class=F
seq_text=PISASDMQK target_desc=HLA-A*33:01 class=F
seq_text=PLHILASNK target_desc=HLA-A*33:01 class=F
seq_text=VSMMSMYGK target_desc=HLA-A*33:01 class=F
seq_text=RSDGYFLKIK target_desc=HLA-A*33:01 class=F

Could you tell me if the measured pKd of `FFAYVMNIER` reaches 6 or more?
T

Please indicate if the recorded pKd for `TLISSDGAR` meets or exceeds 6.
T

Could you please find out whether `SSFIVPEFAK` has pKd that meets 6 or exceeds it?
F
